Molecular target: human CYP2C8, CYP2C8 (gene 1558) (UniProt P10632)
Sequence (P10632 whole entry, looked up): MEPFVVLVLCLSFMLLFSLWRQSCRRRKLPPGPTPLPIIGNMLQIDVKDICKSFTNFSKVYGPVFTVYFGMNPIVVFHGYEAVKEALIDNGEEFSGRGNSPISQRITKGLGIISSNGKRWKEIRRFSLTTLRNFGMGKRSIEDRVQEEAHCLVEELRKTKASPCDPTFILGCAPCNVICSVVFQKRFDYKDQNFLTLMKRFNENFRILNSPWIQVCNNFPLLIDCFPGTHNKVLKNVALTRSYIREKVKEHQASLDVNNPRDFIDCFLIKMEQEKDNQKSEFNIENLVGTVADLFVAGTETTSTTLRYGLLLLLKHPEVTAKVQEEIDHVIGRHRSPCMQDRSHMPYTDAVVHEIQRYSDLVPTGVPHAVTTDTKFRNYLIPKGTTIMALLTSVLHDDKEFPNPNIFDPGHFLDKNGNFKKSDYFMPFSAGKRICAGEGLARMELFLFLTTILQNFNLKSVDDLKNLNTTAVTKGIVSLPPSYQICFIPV
Experiment: NVS_ADME_hCYP2C8: NovaScreen (NVS) CYP450-related Enzyme Activity (ADME) Assay for human CYP2C8 (AID 2283104)
Active and inactive are the calls of the source. Rule for the calls: active = hit-call score of the fitted dose curve at least 0.9, where 1 is the maximum; inactive = score below 0.9.
Labels: active, inactive

compound="CC1COC(Cn2cncn2)(c2ccc(Oc3ccc(Cl)cc3)cc2Cl)O1 (configuration not stated)" assayed_system="human CYP2C8, CYP2C8 (gene 1558) (UniProt P10632)" discrete_label=active
compound=COc1ccc(C(c2ccc(OC)cc2)C(Cl)(Cl)Cl)cc1 assayed_system="human CYP2C8, CYP2C8 (gene 1558) (UniProt P10632)" discrete_label=inactive
compound=COC(=O)N(OC)c1ccccc1COc1ccn(-c2ccc(Cl)cc2)n1 assayed_system="human CYP2C8, CYP2C8 (gene 1558) (UniProt P10632)" discrete_label=inactive
compound=CCc1nn(C)c(C(=O)NCc2ccc(C(C)(C)C)cc2)c1Cl assayed_system="human CYP2C8, CYP2C8 (gene 1558) (UniProt P10632)" discrete_label=inactive
compound="OC(c1ccc(Cl)cc1)(c1cncnc1)c1ccccc1Cl (configuration not stated)" assayed_system="human CYP2C8, CYP2C8 (gene 1558) (UniProt P10632)" discrete_label=active
compound="CCOC(=O)CC(SP(=S)(OC)OC)C(=O)OCC (configuration not stated)" assayed_system="human CYP2C8, CYP2C8 (gene 1558) (UniProt P10632)" discrete_label=inactive
compound=CCCN(CCC)c1c([N+](=O)[O-])cc(S(N)(=O)=O)cc1[N+](=O)[O-] assayed_system="human CYP2C8, CYP2C8 (gene 1558) (UniProt P10632)" discrete_label=active

----------
Tested on: SERPINA7 (gene 6906)
Experiment: CCTE_GLTED_hTBG: CCTE's human Thyroxine-binding Globulin (TBG) Inhibition Assay, Great Lakes Toxicology and Ecology Division (GLTED) Lab (AID 2284343);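 note: active chemicals lower fluorescence versus DMSO baseline by displacing probe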
Activity calls are given as the source filed them. How the source made its calls: active means hit-call score of the fitted dose curve at least 0.9, where 1 is the maximum; inconclusive means response in the unintended direction; inactive means score below 0.9.
# maps each entry to its AC50
quantity_measured: AC50

molecule=Oc1ccccc1-c1ccccc1 quantity_measured=AC50 test_value="28.1 µM (active)"
molecule=Cc1ccc(-c2c(Cl)nc(C#N)n2S(=O)(=O)N(C)C)cc1 quantity_measured=AC50 test_value="33.1 µM (active)"
molecule=CCCCOC(=O)c1ccccc1C(=O)OCCCC quantity_measured=AC50 test_value="11.4 µM (active)"
molecule="OC(c1ccc(Cl)cc1)(c1cncnc1)c1ccccc1Cl (configuration not stated)" quantity_measured=AC50 test_value="36.5 µM (active)"
molecule=CCOc1cc(Oc2ccc(C(F)(F)F)cc2Cl)ccc1[N+](=O)[O-] quantity_measured=AC50 test_value="4.86 µM (active)"
molecule=Cc1cc(Cl)ccc1OCC(=O)O quantity_measured=AC50 test_value="59.6 µM (active)"
molecule="C#CCOS(=O)OC1CCCCC1Oc1ccc(C(C)(C)C)cc1 (configuration not stated)" quantity_measured=AC50 test_value="25.2 µM (active)"

----------
Read-out: TIMP1, TIMP1 (gene 7076)
Assay: LTEA_HepaRG_TIMP1: Life Technologies and Expression Analysis (LTEA) Assay for TIMP1 using HepaRG (AID 2283534)
Details: mRNA level, 48 h; actives raise or lower the signal
Activity calls are given as the source filed them. The calls were made as follows: active = hit-call score of the fitted dose curve at least 0.9, where 1 is the maximum; inactive = score below 0.9.
Labels: active, inactive

compound=COC(=O)C=C(C)OP(=O)(OC)OC discrete_label=inactive
compound="CC1COC(Cn2cncn2)(c2ccc(Oc3ccc(Cl)cc3)cc2Cl)O1 (stereo not drawn)" discrete_label=active
compound=CC1=C(C(=O)Nc2ccccc2)SCCO1 discrete_label=inactive

----------
Read-out: xenobiotic metabolism (CYP1A1), CYP1A1 (gene 1543)
Experiment: CLD_CYP1A1_48hr: CellzDirect (CLD) Gene Expression Assay for xenobiotic metabolism (CYP1A1) at 48 hours (AID 2283705)
Results filed as inconclusive are left out. Activity calls are given as the source filed them. The calls were made as follows: active = hit-call score of the fitted dose curve at least 0.9, where 1 is the maximum; inconclusive = response in the unintended direction; inactive = score below 0.9.
Outcome codes: active, inactive

molecule=COc1cnc(OC)n2nc(NS(=O)(=O)c3c(OCC(F)F)cccc3C(F)(F)F)nc12 discrete_label=inactive
molecule="Cc1c(F)c(F)c(COC(=O)C2C(/C=C(\\Cl)C(F)(F)F)C2(C)C)c(F)c1F (stereo unspecified)" discrete_label=active
molecule=COC(=O)C=C(C)OP(=O)(OC)OC discrete_label=inactive
molecule=O=C(O)c1nc(Cl)ccc1Cl discrete_label=active
molecule=CCCN(CCC)c1c([N+](=O)[O-])cc(S(N)(=O)=O)cc1[N+](=O)[O-] discrete_label=active
molecule="CCCC1COC(Cn2cncn2)(c2ccc(Cl)cc2Cl)O1 (stereo unspecified)" discrete_label=active

----------
Experiment: APR_HepG2_CellLoss_24hr: Apredica 24-hour HepG2 Assay for Cell Loss (AID 2282908);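 for AC50: fit in both directions so a hit may be cell loss or gain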
Conditions: high-content imaging
The source made the active and inactive calls. The calls were made as follows: active = hit-call score of the fitted dose curve at least 0.9, where 1 is the maximum; inactive = score below 0.9.
quantity_measured: AC50

molecule="N#Cc1nn(-c2c(Cl)cc(C(F)(F)F)cc2Cl)c(N)c1S(=O)C(F)(F)F (stereo not given)" test_value="96.2 µM (active)"
molecule=CCc1nn(C)c(C(=O)NCc2ccc(C(C)(C)C)cc2)c1Cl test_value="86.9 µM (active)"
molecule=CNC(=O)ON=CC(C)(C)SC test_value=inactive
molecule=N#Cc1cc(Br)c(O)c(Br)c1 test_value=inactive
molecule="CCCCC(CC)COC(=O)c1ccccc1C(=O)OCC(CC)CCCC (stereo not given)" test_value=inactive

----------
Assay: BSK_4H_SRB: Viability Assessment in the BioMAP Diversity Plus: 4H Assay (AID 2283027);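 note: cells exposed to compound for 24 h before staining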
Details: primary human endothelial cells (HUVEC)
Calls of active or inactive are those of the source. How the source made its calls: active means hit-call score of the fitted dose curve at least 0.9, where 1 is the maximum; inactive means score below 0.9.
quantity_measured: outcome

molecule=COC(=O)c1ccccc1C(=O)OC test_value=inactive
molecule="C=CC1(C)OC(=O)N(c2cc(Cl)cc(Cl)c2)C1=O (stereo not drawn)" test_value=inactive
molecule="COC(=O)C(C)Oc1ccc(Oc2ccc(Cl)cc2Cl)cc1 (stereo not drawn)" test_value=inactive

----------
Biological target: Nucleoli Translocation, AR (gene 367) (UniProt P10275)
Sequence (P10275 whole entry, looked up): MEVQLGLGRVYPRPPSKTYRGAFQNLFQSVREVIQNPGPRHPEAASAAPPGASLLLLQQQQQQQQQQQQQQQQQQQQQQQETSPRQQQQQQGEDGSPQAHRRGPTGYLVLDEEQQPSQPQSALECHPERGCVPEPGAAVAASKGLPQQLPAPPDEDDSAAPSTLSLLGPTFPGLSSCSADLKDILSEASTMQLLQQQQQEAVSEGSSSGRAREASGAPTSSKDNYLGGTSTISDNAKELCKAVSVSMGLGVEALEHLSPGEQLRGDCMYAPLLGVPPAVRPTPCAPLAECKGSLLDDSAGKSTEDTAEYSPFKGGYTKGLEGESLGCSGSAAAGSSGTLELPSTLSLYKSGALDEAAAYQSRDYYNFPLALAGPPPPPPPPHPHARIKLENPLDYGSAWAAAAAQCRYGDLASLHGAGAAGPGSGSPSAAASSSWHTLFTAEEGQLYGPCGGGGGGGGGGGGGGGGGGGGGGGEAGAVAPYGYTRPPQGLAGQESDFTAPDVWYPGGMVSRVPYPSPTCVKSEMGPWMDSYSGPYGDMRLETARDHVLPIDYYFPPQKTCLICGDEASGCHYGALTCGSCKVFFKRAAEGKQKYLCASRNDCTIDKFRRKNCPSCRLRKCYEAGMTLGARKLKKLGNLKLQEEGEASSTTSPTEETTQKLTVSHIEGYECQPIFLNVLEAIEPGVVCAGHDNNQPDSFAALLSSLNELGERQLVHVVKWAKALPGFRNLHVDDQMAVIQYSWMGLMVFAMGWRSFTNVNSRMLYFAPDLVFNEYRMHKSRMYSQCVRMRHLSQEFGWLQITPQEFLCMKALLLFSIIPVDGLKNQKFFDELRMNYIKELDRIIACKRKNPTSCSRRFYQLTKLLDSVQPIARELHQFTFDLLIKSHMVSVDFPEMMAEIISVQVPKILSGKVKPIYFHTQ
Experiment: UPITT_HCI_U2OS_AR_TIF2_Nucleoli_Agonist: University of Pittsburgh U2OS Androgen Receptor-Transcriptional Intermediary Factor 2 (AR-TIF2) Agonism High Content Imaging Assay for Nucleoli Translocation (AID 2283998)
Inconclusive results are not listed. The source made the active and inactive calls. How the source made its calls: active means hit-call score of the fitted dose curve at least 0.9, where 1 is the maximum; inconclusive means response in the unintended direction; inactive means score below 0.9.
Outcome codes: 1 (active), -1 (inactive)

compound="N#Cc1nn(-c2c(Cl)cc(C(F)(F)F)cc2Cl)c(N)c1S(=O)C(F)(F)F (stereo unspecified)" assayed_system="Nucleoli Translocation, AR (gene 367) (UniProt P10275)" discrete_label=-1
compound=O=C(Nc1ccccc1)Nc1ccnc(Cl)c1 assayed_system="Nucleoli Translocation, AR (gene 367) (UniProt P10275)" discrete_label=1
compound=CN(C)C(=S)SSC(=S)N(C)C assayed_system="Nucleoli Translocation, AR (gene 367) (UniProt P10275)" discrete_label=-1
compound="CCCC1COC(Cn2cncn2)(c2ccc(Cl)cc2Cl)O1 (stereo unspecified)" assayed_system="Nucleoli Translocation, AR (gene 367) (UniProt P10275)" discrete_label=1
compound=Cc1ccc(-c2c(Cl)nc(C#N)n2S(=O)(=O)N(C)C)cc1 assayed_system="Nucleoli Translocation, AR (gene 367) (UniProt P10275)" discrete_label=-1
compound=CCCCNC(=O)n1c(NC(=O)OC)nc2ccccc21 assayed_system="Nucleoli Translocation, AR (gene 367) (UniProt P10275)" discrete_label=-1

----------
Test: BSK_LPS_SRB: Viability Assessment in the BioMAP Diversity Plus: LPS Assay (AID 2283079);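 note: total protein by sulforhodamine B absorbance as a cytotoxicity measure; measured one day after compound addition; fitted in both directions against DMSO so loss or gain of signal counts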
Conditions: primary human HUVEC with PBMC
Calls of active or inactive are those of the source. How the source made its calls: active means hit-call score of the fitted dose curve at least 0.9, where 1 is the maximum; inactive means score below 0.9.
Classes used: Yes = active, No = inactive

molecule="Cc1c(F)c(F)c(COC(=O)C2C(/C=C(\\Cl)C(F)(F)F)C2(C)C)c(F)c1F (stereo unspecified)" discrete_label=No
molecule=CC(C)Oc1cc(-n2nc(C(C)(C)C)oc2=O)c(Cl)cc1Cl discrete_label=Yes
molecule=CON(C)C(=O)Nc1ccc(Cl)c(Cl)c1 discrete_label=No
molecule=O=C(O)COc1nc(Cl)c(Cl)cc1Cl discrete_label=No
molecule=Oc1ccccc1-c1ccccc1 discrete_label=No
molecule="CC1COC(Cn2cncn2)(c2ccc(Oc3ccc(Cl)cc3)cc2Cl)O1 (stereo unspecified)" discrete_label=Yes

----------
Read-out: Tissue Factor, F3 (gene 2152)
Assay: BSK_LPS_TissueFactor: BioMAP Diversity Plus: LPS Assay for Tissue Factor Biomarker Activity (AID 2283084)
Conditions: primary human HUVEC with PBMC; actives raise or lower the signal
Calls of active or inactive are those of the source. How the source made its calls: active means hit-call score of the fitted dose curve at least 0.9, where 1 is the maximum; inactive means score below 0.9.
Labels: active, inactive

compound="CCON=C(CC)C1=C(O)CC(c2c(C)cc(C)cc2C)CC1=O (stereo not drawn)" discrete_label=inactive
compound=O=C(O)c1nc(Cl)ccc1Cl discrete_label=inactive
compound=Cc1cc(Cl)ccc1OCC(=O)O discrete_label=inactive
compound=CNC(=O)ON=CC(C)(C)SC discrete_label=inactive
compound="N#Cc1nn(-c2c(Cl)cc(C(F)(F)F)cc2Cl)c(N)c1S(=O)C(F)(F)F (stereo not drawn)" discrete_label=inactive
compound="CCOC(=O)C(Cl)Cc1cc(-n2nc(C)n(C(F)F)c2=O)c(F)cc1Cl (stereo not drawn)" discrete_label=inactive
compound=COc1nc(NC(C)C)nc(NC(C)C)n1 discrete_label=inactive
compound=CON(C)C(=O)Nc1ccc(Cl)c(Cl)c1 discrete_label=inactive
compound=Cc1ccc(-c2c(Cl)nc(C#N)n2S(=O)(=O)N(C)C)cc1 discrete_label=inactive
compound="C=CC1(C)OC(=O)N(c2cc(Cl)cc(Cl)c2)C1=O (stereo not drawn)" discrete_label=inactive
compound="COP(N)(=O)SC (stereo not drawn)" discrete_label=inactive
compound="CC(Oc1ccc(Cl)cc1Cl)C(=O)O (stereo not drawn)" discrete_label=inactive
compound="N#CC(CCc1ccc(Cl)cc1)(Cn1cncn1)c1ccccc1 (stereo not drawn)" discrete_label=inactive
compound="CCCCC(CC)COC(=O)c1ccccc1C(=O)OCC(CC)CCCC (stereo not drawn)" discrete_label=inactive
compound="CC(C)C1(C)N=C(c2nc3ccccc3cc2C(=O)O)NC1=O (stereo not drawn)" discrete_label=inactive
compound=CCCCOC(=O)c1ccccc1C(=O)OCCCC discrete_label=inactive
compound=COc1nc(C)nc(NC(=O)NS(=O)(=O)c2ccccc2CCC(F)(F)F)n1 discrete_label=inactive
compound=COP(=S)(OC)Oc1nc(Cl)c(Cl)cc1Cl discrete_label=active
compound=CC1=C(C(=O)Nc2ccccc2)SCCO1 discrete_label=inactive
compound=CCOc1cc(Oc2ccc(C(F)(F)F)cc2Cl)ccc1[N+](=O)[O-] discrete_label=inactive
compound=CCNc1nc(Cl)nc(NCC)n1 discrete_label=inactive
compound=CS/C(C)=N/OC(=O)N(C)SN(C)C(=O)O/N=C(\C)SC discrete_label=active
compound=CC(C)(C)c1ccc(CSc2cnn(C(C)(C)C)c(=O)c2Cl)cc1 discrete_label=inactive
